Target: Bcl-2 protein (Recombinant Human Bcl-2 Protein) (Homo sapiens)
Construct: purchased Novus NBP2-34889
Test: Binding evaluation of mixture library compounds to Bcl-2 using AS-MS (affinity selection mass spectrometry)
Conditions: AS-MS, mixture of 1200 compounds, Bcl-2; ASMS Ratio(%)=(A−C)/B×100; replicate n = 1
Parameter: ASMS ratio (%) n = 1

For orientation, consider the following solved cases.
Smiles notation	ASMS ratio (%) n = 1
CCOc1cncc(-c2ccc(CN3CCN(c4ccc(C(=O)NCC(F)(F)F)nn4)CC3)c(OC)c2)c1	0.0
CCOc1cccc(-c2cc(C(=O)N3CCN(c4ccc(C(=O)NCC56CC7CC(CC(C7)C5)C6)nn4)CC3)cc(C(C)(C)C)c2)c1	−0.9
CCOc1cccc(-c2ccccc2CCC(=O)N2CCN(c3ccc(C(=O)NCC45CC6CC(CC(C6)C4)C5)cc3)CC2)c1	3.3
CCCNC(=O)c1ccc(N2CCN(Cc3cc(OC(F)(F)F)cc(-c4cccc(OCC)c4)c3)CC2)nn1	0.3
CCOc1cncc(-c2csc(C(=O)N3CCN(c4ccc(C(=O)NCC56CC7CC(CC(C7)C5)C6)nn4)CC3)c2)c1	0.0

a. CCOc1cccc(-c2cc(C(=O)N3CCN(c4ccc(C(=O)NCC(F)(F)F)nn4)CC3)cc(C(F)(F)F)c2)c1
b. CCOc1cccc(C#Cc2cc(C(=O)N3CCN(c4ccc(C(=O)NCC56CC7CC(CC(C7)C5)C6)nn4)CC3)cc(C(F)(F)F)c2)c1
Could you point out whether the larger ASMS ratio (%) n = 1 belongs to a or to b ? Please indicate the selected item by its label.
a
(a: 0.0%, b: −3.9%)

---

Target: Bcl-2 protein (Recombinant Human Bcl-2 Protein) (Homo sapiens, UniProt P10415)
Construct: purchased Novus NBP2-34889
Sequence (P10415 whole entry): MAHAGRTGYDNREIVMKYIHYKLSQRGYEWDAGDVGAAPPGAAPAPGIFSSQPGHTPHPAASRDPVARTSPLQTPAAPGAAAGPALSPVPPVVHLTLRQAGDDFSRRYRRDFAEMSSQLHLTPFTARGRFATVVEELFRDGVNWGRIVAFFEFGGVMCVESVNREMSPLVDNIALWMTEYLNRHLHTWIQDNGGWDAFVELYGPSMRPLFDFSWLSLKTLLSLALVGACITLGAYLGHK
Assay: Binding evaluation of mixture library compounds to Bcl-2 using AS-MS (affinity selection mass spectrometry)
Conditions: AS-MS, mixture of 1200 compounds, Bcl-2; ASMS Ratio(%)=(A−C)/B×100; replicate n = 2
Parameter: ASMS ratio (%) n = 2

Molecule	ASMS ratio (%) n = 2
CCCNC(=O)c1ccc(N2CCN(Cc3cc(OC(C)C)cc(-c4cccc(OCC)c4)c3)CC2)cc1	−3.0
CCOc1cncc(-c2ccc(C(=O)N3CCN(c4ccc(C(=O)NCC(F)(F)F)nn4)CC3)cc2F)c1	0.0
CCOc1cncc(-c2cc(OC)c(CN3CCN(c4ccc(C(=O)NCC(F)(F)F)cc4)CC3)c(OC)c2)c1	0.0
CCOc1cncc(-c2ccc(CN3CCN(c4ccc(C(=O)NCC56CC7CC(CC(C7)C5)C6)cc4)CC3)cc2C)c1	3.6

A. CCOc1cccc(-c2ccc(CN3CCN(c4ccc(C(=O)NCC56CC7CC(CC(C7)C5)C6)cc4)CC3)cc2F)c1
B. CCOc1cncc(-c2ccc(C(C)N3CCN(c4ccc(C(=O)NCC56CC7CC(CC(C7)C5)C6)cc4)CC3)c(F)c2)c1 (stereo not shown)
C. CCOc1cncc(-c2csc(CN3CCN(c4ccc(C(=O)NCC56CC7CC(CC(C7)C5)C6)nn4)CC3)c2)c1
Form: Sort by [ASMS ratio (%) n = 2] Order [ ascending ] Return value: ordered labels per request.
A, C, B
(A: −4.2%, C: −0.7%, B: 2.3%)

These measurements were taken from patent US20240132431A1.
